# ASSAY_OVERVIEW: Pharmacokinetics of a single intraperitoneal dose in mice
# Format: in vivo, C57BL/6J mice
# ASSAY_CONDITIONS: male, C57BL/6J, mouse, plasma, ip, 10 mg/kg
MEASURE_NAME: Cmax (µM)
Number only, in µM; omit the unit.

| INPUT_SMILES | Cmax [µM] |
| --- | --- |
| Cc1cn(-c2cc(NC(=O)c3ccc(C)c(Nc4nccc(-c5cccnc5)n4)c3)cc(C(F)(F)F)c2)cn1 | 33.7 |

Lab note: next compound to report on.
Input: Any idea what Cmax was measured for Cc1cn(-c2cc(NC(=O)c3ccc(C)c(Nc4nccc(-c5cnccn5)n4)c3)cc(C(F)(F)F)c2)cn1 ?
Output: 24.4

====

# ASSAY_OVERVIEW: Pharmacokinetics of a single intraperitoneal dose in mice
# Type: in vivo, C57BL/6J mice
# ASSAY_CONDITIONS: male, C57BL/6J, mouse, brain/plasma, ip, 10 mg/kg
MEASURE_NAME: Kp
A bare number is all that is needed in reply.

Input: Given Cc1cn(-c2cc(NC(=O)c3ccc(C)c(Nc4nccc(-c5cnccn5)n4)c3)cc(C(F)(F)F)c2)cn1 [Radotinib] , state its recorded Kp.
Output: 0.05
